Attribution: patent US20240391954A1

# Subject of test: human MC3R (Homo sapiens, UniProt P41968)
# Construct: expressed in transfected cells; host or cells: HEK-293 cells stably expressing the GScAMP22F split-luciferase cAMP sensor (parent reporter line from Promega); MC3R clone generated in-house, G418 selection
# Sequence (P41968 whole entry): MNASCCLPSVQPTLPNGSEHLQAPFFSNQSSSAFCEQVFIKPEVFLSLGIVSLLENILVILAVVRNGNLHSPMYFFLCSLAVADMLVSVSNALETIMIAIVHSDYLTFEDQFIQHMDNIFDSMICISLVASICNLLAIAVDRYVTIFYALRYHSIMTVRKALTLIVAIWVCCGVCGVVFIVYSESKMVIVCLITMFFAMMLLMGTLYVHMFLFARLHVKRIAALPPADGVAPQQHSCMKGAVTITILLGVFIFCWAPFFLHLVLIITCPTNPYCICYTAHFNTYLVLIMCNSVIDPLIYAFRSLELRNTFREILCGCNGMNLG
# Test description: split-luciferase cAMP sensor assay, agonist mode (measurement window 1), hMC3R
# Type: cell-based
# Particulars: HEK-293 cells stably expressing hMC3R, agonist mode; read-out: MC3R cAMP EC50
# Protocol: The stable cell lines were grown and maintained in selection media consisting of Dulbecco's modified Eagle media (DMEM) with 4.5 g/l D-glucose, and 4 mM L-glutamine (Thermo Fisher Scientific, Waltham, MA), supplemented with 10% fetal bovine serum, 100 units/ml penicillin, 100 μg/ml streptomycin, 2.5 μg/ml amphotericin B, 200 μg/ml hygromycin B (for positive selection of the GScAMP22f luciferase reporter), and Geneticin™ (G418) 700 μg/ml (for MC3R or MC4R selection). […]
Positions of bridges follow the written chain, without caps; N, C: chain ends. Non-standard residues stand in square brackets, D forms with d. Residues, ends and D or L forms follow the SMILES beside them. 3Pal = N[C@@H](Cc1cccnc1)C(=O)O; Cit = NC(=O)NCCC[C@H](N)C(=O)O; Nle = CCCC[C@H](N)C(=O)O; Aib = CC(C)(N)C(=O)O
Assay readout: EC50

CC1(C)NC(=O)CSC[C@@H](C(N)=O)NC(=O)[C@H](Cc2ccccc2)NC(=O)[C@H](CCCNC(=N)N)NC(=O)[C@@H](Cc2ccccc2)NC(=O)[C@H](CCCNC(N)=O)NC1=O [CTX-1652] ({CH2CO}-[Aib][Cit][dF]RFC-NH2; thioether N-6) :: > 10000 nM
COc1ccc(C[C@H]2NC(=O)[C@H](CCCNC(N)=O)NC(=O)C(C)(C)NC(=O)[C@@H](NC(=O)[C@H](CCCNC(=N)N)NC(C)=O)CSSC[C@@H](C(N)=O)NC(=O)[C@H](Cc3ccccc3)NC(=O)[C@H](CCCNC(=N)N)NC2=O)cc1 [CTX-1299] (Ac-RC[Aib][Cit][dY](Me)RFC-NH2; disulfide 2-8) :: > 10000 nM
CC(=O)N[C@@H](CCCNC(=N)N)C(=O)N[C@H]1CSSC[C@@H](C(N)=O)NC(=O)[C@@H](Cc2c[nH]c3ccccc23)NC(=O)[C@H](CCCNC(=N)N)NC(=O)[C@@H](Cc2ccccc2)NC(=O)[C@H](Cc2c[nH]cn2)NC(=O)C(C)(C)NC1=O :: 10 nM
CC1(C)NC(=O)CSC[C@@H](C(N)=O)NC(=O)[C@H](Cc2c[nH]c3ccccc23)NC(=O)[C@H](CCCNC(=N)N)NC(=O)[C@@H](Cc2ccccc2)NC(=O)[C@H](CCCNC(=N)N)NC1=O [CTX-1648] ({CH2CO}-[Aib]R[dF]RWC-NH2; thioether N-6) :: 72 nM
COc1ccc(C[C@H]2NC(=O)[C@H](CCCNC(=N)N)NC(=O)C(C)(C)NC(=O)[C@@H](NC(=O)[C@H](CCCNC(=N)N)NC(C)=O)CSSC[C@@H](C(N)=O)NC(=O)[C@@H](Cc3c[nH]c4ccccc34)NC(=O)[C@H](CCCNC(=N)N)NC2=O)cc1 [CTX-1297] (Ac-RC[Aib]R[dY](Me)R[dW]C-NH2; disulfide 2-8 (inferred)) :: > 10000 nM
CC(=O)N[C@H]1CSSC[C@@H](C(N)=O)NC(=O)[C@H](Cc2c[nH]c3ccccc23)NC(=O)[C@H](CCCNC(=N)N)NC(=O)[C@@H](Cc2ccccc2)NC(=O)[C@H](CCCNC(=N)N)NC(=O)[C@@H](C)NC1=O [CTX-1627, cyclo(Cys-D-Ala-Arg-D-Phe-Arg-Trp-Cys)] (Ac-C[dA]R[dF]RWC-NH2; disulfide 1-7 (inferred)) :: 3.7 nM
COc1ccc(C[C@H]2NC(=O)[C@H](CCCNC(=N)N)NC(=O)C(C)(C)NC(=O)[C@@H](NC(=O)[C@H](CCCNC(=N)N)NC(C)=O)CSSC[C@@H](C(N)=O)NC(=O)[C@H](Cc3ccccc3)NC(=O)[C@H](CCCNC(=N)N)NC2=O)cc1 [CTX-1298] (Ac-RC[Aib]R[dY](Me)RFC-NH2; disulfide 2-8 (inferred)) :: > 10000 nM
N=C(N)NCCC[C@@H]1NC(=O)[C@@H](Cc2ccccc2)NC(=O)[C@H](Cc2c[nH]cn2)NC(=O)CNC(=O)CSC[C@@H](C(N)=O)NC(=O)[C@H](Cc2ccccc2)NC1=O [CTX-1653] ({CH2CO}-GH[dF]RFC-NH2; thioether N-6) :: > 10000 nM

The recorded EC50 for entry CC[C@H]1NC(=O)[C@@H](NC(=O)[C@H](CCCNC(=N)N)NC(C)=O)CSSC[C@@H](C(N)=O)NC(=O)[C@H](Cc2c[nH]c3ccccc23)NC(=O)[C@H](CCCNC(=N)N)NC(=O)[C@@H](Cc2ccccc2)NC(=O)[C@H](Cc2c[nH]cn2)NC1=O equals 1.6 nM

The recorded EC50 for entry CC(=O)N[C@@H](CCCNC(=N)N)C(=O)N[C@H]1CSSC[C@@H](C(N)=O)NC(=O)[C@H](Cc2ccccc2)NC(=O)[C@H](CCCNC(=N)N)NC(=O)[C@@H](Cc2ccccc2)NC(=O)[C@H](Cc2cccnc2)NC(=O)C(C)(C)NC1=O [CTX-1605] (Ac-RC[Aib][3Pal][dF]RFC-NH2; disulfide 2-8 (inferred)) equals > 10000 nM

The recorded EC50 for entry C[C@H]1NC(=O)CSC[C@@H](C(N)=O)NC(=O)[C@H](Cc2ccccc2)NC(=O)[C@H](CCCNC(=N)N)NC(=O)[C@@H](Cc2ccccc2)NC(=O)[C@H](CCCNC(N)=O)NC1=O [CTX-1658] ({CH2CO}-[dA][Cit][dF]RFC-NH2; thioether N-6) equals > 10000 nM

The recorded EC50 for entry CCCC[C@H](NC(=O)[C@H](CCCNC(=N)N)NC(C)=O)C(=O)N[C@H]1CSSC[C@@H](C(N)=O)NC(=O)[C@H](Cc2c[nH]c3ccccc23)NC(=O)[C@H](CCCNC(=N)N)NC(=O)[C@@H](Cc2ccccc2)NC(=O)[C@H](CCCNC(=N)N)NC1=O [CTX-1228, Arg-Nle-cyclo(Cys-Arg-D-Phe-Arg-Trp-Cys)] (Ac-R[Nle]CR[dF]RWC-NH2; disulfide 3-8 (inferred)) equals 1.6 nM

The recorded EC50 for entry CC(=O)N[C@@H](CCCNC(=N)N)C(=O)N[C@H]1CSSC[C@@H](C(N)=O)NC(=O)[C@@H](Cc2c[nH]c3ccccc23)NC(=O)[C@H](CCCNC(=N)N)NC(=O)[C@@H](Cc2ccccc2)NC(=O)[C@H](CCCNC(=N)N)NC(=O)[C@@H](C)NC1=O [CTX-1263] (Ac-RC[dA]R[dF]R[dW]C-NH2; disulfide 2-8) equals 11 nM
